Entries and their measured EC50 follow.
biological target: Cannabinoid receptor 2 (Homo sapiens); assay: Agonist activity at human recombinant CB2 receptor expressed in CHO-K1 cell membrane assessed as increase in GTPgammaS binding pretreated for 30 mins followed by [35S]GTPgammaS addition for 90 mins by [35S]GTP-gammaS binding assay
Sequence (P34972 whole entry): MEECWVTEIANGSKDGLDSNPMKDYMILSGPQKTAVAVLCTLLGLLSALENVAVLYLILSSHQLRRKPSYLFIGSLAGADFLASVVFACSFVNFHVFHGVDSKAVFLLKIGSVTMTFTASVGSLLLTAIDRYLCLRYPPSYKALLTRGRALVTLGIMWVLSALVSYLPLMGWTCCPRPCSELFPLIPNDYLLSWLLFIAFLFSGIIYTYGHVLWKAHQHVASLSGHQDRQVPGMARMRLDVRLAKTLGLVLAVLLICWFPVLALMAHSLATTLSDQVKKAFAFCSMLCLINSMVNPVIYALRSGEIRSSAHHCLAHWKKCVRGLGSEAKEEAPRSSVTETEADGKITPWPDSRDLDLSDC
quantity kind: EC50 (nM)

| structure smiles | result value |
| --- | --- |
| CCCCCc1cc(OC)c2cc(Cc3ccccn3)c(=O)oc2c1 | 188 |
| CCCCC1(c2cc(O)c3cc(Cc4ccccn4)c(=O)oc3c2)CCCCC1 | 42 |
| CCCCC1(c2cc(O)c3cc(CCC)c(=O)oc3c2)CCCCC1 | 4.51 |
| CCCCc1cc2c(O)cc(C3(CCCC)CCCC3)cc2oc1=O | 18 |

Values were extracted from ChEMBL document CHEMBL4842314.
